protocolDescription: Pharmacokinetic study, plasma and brain PK parameters after I.P. dosing
Format: in vivo, mouse
conditionParameters: mouse, ip; plasma; 25 mg/Kg I.P.; read-out: AUCInf (plasma)
assayReadout: AUC(0-inf) (ng·h/mL)
Hi! Could you send only the number? It should be in ng·h/mL, unit omitted.

O=C(CO)N1CCc2c(sc3c(Cl)c(Cl)cc(-c4cn[nH]c4)c23)C1 [Compound 63] = 34300

// next entry
Exercise: Tell me AUC(0-inf) reported for Cn1cc(-c2cc(Cl)c(Cl)c3sc4c(c23)CN(C(=O)CO)CC4)cn1 [Compound 48]
Key: 33500

---

assayedTarget: h-cGAS (Homo sapiens)
Sequence (Q8N884 whole entry): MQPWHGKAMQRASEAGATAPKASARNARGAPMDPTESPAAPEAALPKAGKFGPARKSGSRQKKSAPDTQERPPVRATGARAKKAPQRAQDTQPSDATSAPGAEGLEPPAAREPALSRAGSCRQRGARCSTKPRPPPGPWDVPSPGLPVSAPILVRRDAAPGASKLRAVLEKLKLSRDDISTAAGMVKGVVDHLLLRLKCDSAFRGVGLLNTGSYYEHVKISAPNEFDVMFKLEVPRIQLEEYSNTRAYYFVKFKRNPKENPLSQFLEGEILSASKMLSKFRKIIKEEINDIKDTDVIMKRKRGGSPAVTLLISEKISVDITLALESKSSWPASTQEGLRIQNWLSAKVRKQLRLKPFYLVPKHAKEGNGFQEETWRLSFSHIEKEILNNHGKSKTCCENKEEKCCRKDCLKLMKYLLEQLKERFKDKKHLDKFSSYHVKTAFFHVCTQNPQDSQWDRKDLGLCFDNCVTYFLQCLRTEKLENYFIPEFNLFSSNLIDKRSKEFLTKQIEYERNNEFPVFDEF
protocolDescription: Cell-free human cGAS enzyme inhibition assay (ATP depletion, Kinase-Glo Max)
Format: biochemical
conditionParameters: 3 h; read-out: h-cGAS, conc. 10 μM
Recorded inhibition at 10 µM by entry

Worked set:
O=C(CO)N1CCc2c(sc3c(Cl)c(Cl)cc(-c4ccncc4)c23)C1 = 0 to 24%
Cn1c2c(c3c(-c4ccc(N)nc4)cc(Cl)c(Cl)c31)CN(C(=O)C1CCCN1)CC2 (stereo not drawn) = 75 to 100%
Cn1cnc(-c2cc(Cl)c(Cl)c3sc4c(c23)CCN(C(=O)CN)C4)c1 = 50 to 74%

Exercise: Tell me inhibition at 10 µM reported for CC(O)C(=O)N1CCc2c(c3c(-c4ccn(C)n4)cc(Cl)c(Cl)c3n2C)C1 (stereo not drawn)
Key: 75 to 100%

Exercise: Tell me inhibition at 10 µM reported for O=C(CO)N1CCc2sc3c(Cl)c(Cl)cc(-c4ccco4)c3c2C1
Key: 50 to 74%

Exercise: Tell me inhibition at 10 µM reported for CNc1cnn(-c2cc(Cl)c(Cl)c3sc4c(c23)CCN(C(=O)CN)C4)c1
Key: 50 to 74%

---

Recorded Remaining (NCF = 60 min) by entry
protocolDescription: Metabolic stability in mouse liver microsomes
conditionParameters: mouse liver microsomes; 60 min, no co-factor (no NADPH)
Hi! Could you send only the number? It should be in %, unit omitted.

Cn1cc(-c2cc(Cl)c(Cl)c3c2c2c(n3C)CCN(C(=O)CN)C2)cn1 = 97.7

Exercise: Tell me Remaining (NCF = 60 min) reported for Cn1cc(-c2cc(Cl)c(Cl)c3sc4c(c23)CN(C(=O)CO)CC4)cn1
Key: 94.7

Exercise: Tell me Remaining (NCF = 60 min) reported for Cn1cc(-c2cc(Cl)c(Cl)c3sc4c(c23)CCN(C(=O)CN)C4)cn1
Key: 97.8

Exercise: Tell me Remaining (NCF = 60 min) reported for Cn1c2c(c3ccc(Cl)c(F)c31)CN(C(=O)CO)CC2 [TDI-6570, reference compound]
Key: 100.0

Exercise: Tell me Remaining (NCF = 60 min) reported for O=C(O)Cc1ccccc1Nc1c(Cl)cccc1Cl [Diclofenac, reference compound]
Key: 100.4

Exercise: Tell me Remaining (NCF = 60 min) reported for Cn1ccc(-c2cc(Cl)c(Cl)c3oc4c(c23)CN(C(=O)CO)CC4)n1
Key: 116.2

Exercise: Tell me Remaining (NCF = 60 min) reported for Cn1cc(-c2cc(Cl)c(Cl)c3sc4c(c23)CN(C(=O)CN)CC4)cn1
Key: 94.5

Exercise: Tell me Remaining (NCF = 60 min) reported for Cn1cc(-c2cc(Cl)c(Cl)c3oc4c(c23)CN(C(=O)CN)CC4)cn1
Key: 90.0

Exercise: Tell me Remaining (NCF = 60 min) reported for C[C@]12CC[C@H]3[C@@H](CCC4=CC(=O)CC[C@@]43C)[C@@H]1CC[C@@H]2O [Testosterone, reference compound]
Key: 88.7

Data credit: patent US20250163052A1
